Exercise: for every item that follows, state its recorded pIC50.
# Tested Target: E. coli LpxA (Escherichia coli, UniProt P0A722)
# Sequence (P0A722 1-262): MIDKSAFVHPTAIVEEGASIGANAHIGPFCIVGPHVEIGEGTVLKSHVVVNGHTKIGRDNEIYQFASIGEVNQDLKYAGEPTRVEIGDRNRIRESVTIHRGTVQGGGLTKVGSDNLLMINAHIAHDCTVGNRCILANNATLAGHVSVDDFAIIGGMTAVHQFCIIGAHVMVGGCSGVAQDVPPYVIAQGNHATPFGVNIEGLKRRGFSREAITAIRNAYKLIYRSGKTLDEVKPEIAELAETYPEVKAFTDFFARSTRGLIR
# Test Details: SPE-MS detection of LpxA product
# Type: biochemical
For clarity, pIC50 is expressed as the negative log10 of concentration in mol/L.

I have this molecule here, `Cc1ccnc(-c2cc(C(=O)N3CCOC[C@H]3Cc3ccccc3F)[nH]n2)c1` , and I need its recorded pIC50.
5.52

GET /values?readout=pIC50&item= `COc1cccc(Cl)c1C[C@@H]1COCCN1C(=O)c1cc(-c2cc(C)c(N)cn2)n[nH]1`
6.22

What pIC50 value was documented for this molecule, `COc1ccccc1C[C@@H]1COCCN1C(=O)c1cc(-c2cc(C)ccn2)n[nH]1` ?
4.96

---

# Tested Target: E. coli LpxA (Escherichia coli)
# Test Details: SPR
# Format: binding
Value Kind: pKd
The value called pKd is obtained by taking minus log10 of the concentration in mol/L.

Find the measured pKd: item Cc1ccnc(-c2cc(C(=O)N3CCOC[C@H]3Cc3ccccc3)[nH]n2)c1 [compound 2] , target or system E. coli LpxA (Escherichia coli).
3.96

---

# Tested Target: E. coli LpxA (Escherichia coli)
# Test Details: SPE-MS detection of LpxA product
# Assay type: biochemical
Value Kind: IC50
Your answer should be a number followed by the unit of measure.

Lookup: IC50 / E. coli LpxA (Escherichia coli) / `Cc1ccnc(-c2cc(C(=O)N3CCOC[C@H]3Cc3ccccc3)[nH]n2)c1`
4.8 µM

---

# Tested Target: E. coli LpxA (Escherichia coli)
# Sequence (P0A722 1-262): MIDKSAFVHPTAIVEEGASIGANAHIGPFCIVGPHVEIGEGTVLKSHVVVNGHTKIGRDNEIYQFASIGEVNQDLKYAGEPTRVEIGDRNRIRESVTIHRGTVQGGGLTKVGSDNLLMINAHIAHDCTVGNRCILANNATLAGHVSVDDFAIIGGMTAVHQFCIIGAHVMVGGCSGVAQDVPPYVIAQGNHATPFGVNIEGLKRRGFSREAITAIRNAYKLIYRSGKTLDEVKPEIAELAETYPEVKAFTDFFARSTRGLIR
# Test Details: SPE-MS detection of LpxA product
# Assay type: biochemical
For each record, write down the corresponding IC50.
# number only, unit nM dropped from output

# query: IC50 of entry COc1cccc(Cl)c1C[C@@H]1COCCN1C(=O)c1cc(-c2cc(C)ccn2)n[nH]1 [compound 11]
500

Item under review: Cc1ccnc(-c2cc(C(=O)N3CCOC[C@@H]3Cc3ccccc3)[nH]n2)c1 [compound 12] . Reported IC50?
171000

Item under review: COc1ccc(C(=O)CN2C(=O)NC(c3ccccc3)(c3ccccc3)C2=O)cc1 [compound 1] . Reported IC50?
1400

Would you mind telling me what IC50 value was observed for Cc1ccnc(-c2cc(C(=O)N3CCOC[C@H]3Cc3ccccn3)[nH]n2)c1 [compound 5] ?
86000

May I ask what IC50 has been recorded for Cc1ccnc(-c2cc(C(=O)N3CCOC[C@H]3C(C)C)[nH]n2)c1 [compound 4] ?
148000

Entry under review: Cc1ccnc(-c2cc(C(=O)N3CCOC[C@H]3Cc3ccccc3Cl)[nH]n2)c1 [compound 7] . Reported IC50?
2900

Could you tell me which IC50 is on file for COc1cccc(F)c1C[C@@H]1COCCN1C(=O)c1cc(-c2cc(C)ccn2)n[nH]1 [compound 9] ?
2500
